FYI, the data here is from the supplement of paper PMC12636033.

Tested on: 2Sp-muMax20 (muMax20 with two 2,6-bis(methyl)pyridine Cys staples)
Assay: PBM 8-mer E-score (E-score (rank enrichment, -0.5 to 0.5)); higher = stronger preferential binding
The full ranking holds about 33,000 sequences; the median of “E-score (rank enrichment, -0.5 to 0.5)” is about -0.0043, and the highest 2% start at about 0.24. This is one part of a sample in which the highest values are shown more often than they occur.
TEST READOUT: PBM 8-mer E-score

>  <RESIDUE STRING>
CATGATAA

>  <OBSERVED MEASUREMENT>
0.267

$$$$
>  <RESIDUE STRING>
CCATGTGC

>  <OBSERVED MEASUREMENT>
0.114

$$$$
>  <RESIDUE STRING>
TCGGAGAA

>  <OBSERVED MEASUREMENT>
-0.136

$$$$
>  <RESIDUE STRING>
TAATGTGA

>  <OBSERVED MEASUREMENT>
0.266

$$$$
>  <RESIDUE STRING>
AATGATAC

>  <OBSERVED MEASUREMENT>
0.193

$$$$
>  <RESIDUE STRING>
CATGATAC

>  <OBSERVED MEASUREMENT>
0.253

$$$$
>  <RESIDUE STRING>
CCTCAAGA

>  <OBSERVED MEASUREMENT>
0.175

$$$$
>  <RESIDUE STRING>
CCATCGGG

>  <OBSERVED MEASUREMENT>
-0.247

$$$$
